Experiment: Selectivity ratio of TD50 for human HepG2 cells to MIC for Cryptococcus neoformans H99S
Format: toxicity
Where a SMILES comes first, the peptide text is derived from it. [ ]: non-standard residue; d: D form. N(tridecyl)Gly = CCCCCCCCCCCCCNCC(=O)O; Gly(N-2-aminoethyl) = NCCNCC(=O)O; Gly(N-cHex) = O=C(O)CNC1CCCCC1; Nlys = NCCCCNCC(=O)O; Sar = CNCC(=O)O
Each record here notes measured selectivity ratio.
Lab note: record the figure alone, no unit after it.

Field: example entries. Status: answers known.
1. CCCCCCCCCCCCCNCC(=O)N(CC(=O)N(C)CC(=O)N(CCN)CC(=O)N(CC(N)=O)C1CCCCC1)C1CCCCC1	27
2. CCCCCCCCCCCCCNCC(=O)N(CC(=O)N(CCCCN)CC(=O)N(CCN)CC(=O)N(CC(N)=O)C1CCCCC1)C1CCCCC1 (H-[N(tridecyl)Gly][Gly(N-cHex)][Nlys][Gly(N-2-aminoethyl)][Gly(N-cHex)]-NH2)	120

We now examine a further compound.
The measured selectivity ratio associated with CCCCCCCCCCCCCNCC(=O)N(CC(=O)N(CCCCN)CC(=O)N(C)CC(=O)N(CC(N)=O)C1CCCCC1)C1CCCCC1 (H-[N(tridecyl)Gly][Gly(N-cHex)][Nlys][Sar][Gly(N-cHex)]-NH2) reads 27

---

Test system: Cryptococcus neoformans
Test: Antifungal activity against Cryptococcus neoformans H99S assessed as inhibition of fungal growth measured after 72 hrs by Plate reader assay
Format: functional
Where a SMILES comes first, the peptide text is derived from it. [ ]: non-standard residue; d: D form. N(tridecyl)Gly = CCCCCCCCCCCCCNCC(=O)O; Gly(N-2-aminoethyl) = NCCNCC(=O)O; Gly(N-cHex) = O=C(O)CNC1CCCCC1; Nlys = NCCCCNCC(=O)O; Sar = CNCC(=O)O
Below is a list of entries, each paired with its recorded MIC value.
Give just the number in µg/mL; leave the unit off.

Some solved cases for reference:
1. CCCCCCCCCCCCCNCC(=O)N(C)CC(=O)N(CCCCN)CC(=O)N(CCN)CC(=O)N(CC(N)=O)C1CCCCC1 (H-[N(tridecyl)Gly][Sar][Nlys][Gly(N-2-aminoethyl)][Gly(N-cHex)]-NH2)	6.25
2. CCCCCCCCCCCCCNCC(=O)N(CC(=O)N(CCCCN)CC(=O)N(CCN)CC(=O)N(CC(N)=O)C1CCCCC1)C1CCCCC1 (H-[N(tridecyl)Gly][Gly(N-cHex)][Nlys][Gly(N-2-aminoethyl)][Gly(N-cHex)]-NH2)	1.56
3. CCCCCCCCCCCCCNCC(=O)N(CC(=O)N(CCCCN)CC(=O)N(CCN)CC(=O)N(C)CC(N)=O)C1CCCCC1 (H-[N(tridecyl)Gly][Gly(N-cHex)][Nlys][Gly(N-2-aminoethyl)][Sar]-NH2)	6.25

So the reported MIC for Nc1nc(=O)[nH]cc1F [FLUCYTOSINE] , on Cryptococcus neoformans, turned out to be 2

The reported MIC value, Cryptococcus neoformans, for CCCCCCCCCCCCCNCC(=O)N(CC(=O)N(CCCCN)CC(=O)N(C)CC(=O)N(CC(N)=O)C1CCCCC1)C1CCCCC1 (H-[N(tridecyl)Gly][Gly(N-cHex)][Nlys][Sar][Gly(N-cHex)]-NH2) reads 3.13

The reported Cryptococcus neoformans MIC of "CCCCCCCCCCCCCNCC(=O)N(CC(=O)N(C)CC(=O)N(CCN)CC(=O)N(CC(N)=O)C1CCCCC1)C1CCCCC1" is 3.13
